# test-name: Biochemical counterscreen for C difficile toxins, absence of UDPG, inhibitor dose response (AID 720650)
# condition-details: series mostly up to 19.5 µM
The source made the active and inactive calls. The rule behind the calls is not given here.
Allowed answers: Yes (active), No (inactive)

Just curious, what result did S=C(NCCc1ccccc1)Nc1ncccn1 get here?
No

More entries:
Look up the recorded call for CC(C)CNC(=O)c1c(F)c(F)c(F)c(F)c1F in this test.
No

----------
# test-name: Biochemical counterscreen for C difficile toxins, absence of UDPG, inhibitor dose response (AID 720650)
# condition-details: series mostly up to 19.5 µM
Active and inactive are the calls of the source. No rule for the calls is given here.
Select the correct class. Options are t = active, f = inactive and nothing else.

A selection of reference data follows.
In this assay, the call recorded for CCc1[nH]c(=O)c(C#N)c2c1CCCC2 was what?
f

Queued: CCN(CC)CCNc1ccc(C)c2sc3ccc(O)cc3c(=O)c12
t

Subsequent entry: Cc1ccc(Oc2c(CO)c(-c3ccccc3)nn2C)cc1
f

Next up: O=C(c1ccccc1)c1coc2ccc(O)c(Cl)c12
t

Lookup COc1ccccc1-n1c(SCC(=O)O)nc2c(sc(=S)n2-c2ccc(C)c(C)c2)c1=O
f

Thanks! And Cc1ccc(-c2nc3ccc([N+](=O)[O-])cc3[nH]2)cc1 ?
t

Similarly, ClCC(CNCc1ccccc1)c1ccccc1 (stereo unspecified) ?
f

Try the compound COCC(=O)N1CC[C@@H]2[C@H]1c1cc(-c3ccc(OC)cc3)ccc1N(C)[C@H]2CO
t

Next:
Dear colleague, could you share the recorded outcome for CCNC(=O)C[C@H]1CC[C@@H]2[C@H](COc3ccc(NC(C)=O)cc3C(=O)N2C)O1 when you have a moment?
f

Try the compound Cc1[nH]c(-c2ccc(F)cc2)cc1C(=O)N1CCN(c2ccccc2)CC1
f

Record: O=C(COC(=O)c1ccc(F)cc1F)c1ccc[nH]1
f

----------
# test-name: Biochemical counterscreen for C difficile toxins, absence of UDPG, inhibitor dose response (AID 720650)
# condition-details: series mostly up to 19.5 µM
The source made the active and inactive calls. How the calls were made is not given here.
measured-parameter: AC50

Take a look at these entries with their results.
Can you look up the measured AC50 of FC(F)(F)c1cc(CCN2CCNC[C@H]2Cc2cccc3ccccc23)cc(C(F)(F)F)c1 for me?
19.9 µM (active)

Try the molecule O=C(NNc1ccc(-c2csnn2)cc1)c1cc(Cl)cc(Cl)c1
< 0.16 µM (active)

And then Cc1ccc(C)c2c1cc(C)c1nnc(SCC(=O)NCc3ccc4c(c3)OCO4)n12 , what is it?
13.1 µM (active)

Also O=C(O)c1ccc2c(c1)N(Cc1cccc(F)c1)C(=O)CS2 ?
inactive

And what about the molecule COc1ccc(Cl)cc1NC(=S)NC1CCCC1 ?
inactive

Further cases:
Sample Cc1cc(C)nc(NC(N)=NCCc2ccccc2)n1 — what was its AC50?
> 39 µM (inactive)

Now give it for Nc1ccc(Sc2ccc(N)cc2)cc1 too.
3.22 µM (active)

Now the molecule CN(C)c1ccc(NC(=O)/C=C/c2c(Cl)cccc2Cl)cc1
inactive

Could you do the same for COc1cc(N=Nc2c(C)n(C)n(-c3ccccc3)c2=O)ccc1N , please?
inactive

Next: CCOc1ccc(/C=N/n2nnnc2N)cc1O
inactive

----------
# test-name: Biochemical counterscreen for C difficile toxins, absence of UDPG, inhibitor dose response (AID 720650)
# condition-details: series mostly up to 19.5 µM
Active and inactive are the calls of the source. No rule for the calls is given here.
Output constraint: value belongs to active, inactive

Check out these entries, answers already filled in.
State the result this test recorded for O=C(NN=Cc1cc(Br)c(O)c(Br)c1)c1ccccc1NS(=O)(=O)c1cccs1 .
inactive

Same again, this time with CCOC(=O)c1ccc(N=c2sc(C(=O)OC)cc(=O)n2CCCN2CCOCC2)cc1
inactive

Same again, this time with CSc1nc(Cl)cc(Nc2ccc(O)cc2)n1
inactive

---
Hello, I am checking results. What call was entered for Cc1cc(N/N=C/c2ccc(O)cc2O)nc(N2CCOCC2)n1 ?
inactive

Quick one: CCOc1cc(NC(=S)NCC2CCCO2)c(OCC)cc1NC(=O)c1ccc(F)cc1 (stereo not drawn)
inactive

Another compound to look at: Cn1ncc(Cl)c1C(=O)N/N=C/c1cccc(OC2CSC2)c1
inactive

Now this one: Cc1nc2ccccn2c1-c1ccnn1S(=O)(=O)c1ccc(F)cc1
inactive

Then what about the compound Nc1ccc2nc(-c3cccs3)[nH]c2c1 ?
active

----------
# test-name: Biochemical counterscreen for C difficile toxins, absence of UDPG, inhibitor dose response (AID 720650)
# condition-details: series mostly up to 19.5 µM
Active and inactive are the calls of the source. How the calls were made is not given here.
Form entry, call: pick from True (active), False (inactive)

Use the examples below as a reference point.
Hi, do you know how CCc1ccc(NC(=O)C2=CC(c3ccc(OC)cc3)=NS(=O)(=O)N2C)cc1 came out in this test?
False

What about this compound? Nc1nc(Cl)cc(NCCc2ccc(O)cc2)n1
True

Same question, O=C(O)c1ccc(-n2nnc3ccccc32)c([N+](=O)[O-])c1 this time
False

Could you now consider this next compound?
// outcome(item) with item = CC(C)(C)c1cc(Cl)c(O)c(NC(=S)NC(=O)c2cccnc2)c1
False

----------
# test-name: Biochemical counterscreen for C difficile toxins, absence of UDPG, inhibitor dose response (AID 720650)
# condition-details: series mostly up to 19.5 µM
The source made the active and inactive calls. No rule for the calls is given here.
measured-parameter: AC50

For orientation, consider the following solved cases.
Please look up its AC50: COc1ccc(C2=NS(=O)(=O)N(C)C(C(=O)NCc3ccc4c(c3)OCO4)=C2)cc1OC
inactive

// next record COc1ccccc1/C=C/c1onc(C)c1S(=O)(=O)N1CCC(C(=O)NC(C)C)CC1
inactive

And then CCOC(=O)C(=O)NNc1ccc(Cl)cc1 , what is it?
0.594 µM (active)

Try CC(C)Cc1[nH]c(=O)c(C#N)c2c1CCCC2 next.
inactive

Repeat for the following compound: CC(C)NC(=O)N1CC[C@@H]2[C@H]1c1cc(-c3ccc(F)cc3)ccc1N(C)[C@H]2CO
6.96 µM (active)

More entries:
Form field: reported AC50 of CC1(C)O[C@@H]2[C@H](O1)[C@@H](COS(=O)(=O)O)O[C@H]2n1c(=S)[nH]c2c(=O)[nH]c(N)nc21
inactive

And then Oc1ccc(Nc2nc(Cl)nc(NCc3ccco3)n2)cc1 , what is it?
inactive

----------
# test-name: Biochemical counterscreen for C difficile toxins, absence of UDPG, inhibitor dose response (AID 720650)
# condition-details: series mostly up to 19.5 µM
Calls of active or inactive are those of the source. The rule behind the calls is not given here.
Return exactly one item of true (1) (active), false (0) (inactive)

Past entries and their recorded results:
Please state the recorded outcome for this compound: CN(C)CCNc1cccc2sc3ccc(O)cc3c(=O)c12
true (1)

Now this one: COc1ccc(SC[C@H](C)CN2CC[C@H](NC(=O)OCc3ccccc3)CCC2=O)cc1
false (0)

Others:
Recorded test outcome, item O=C1c2c(O)ccc(O)c2C(=O)c2c(NCCNCCO)ccc(NCCNCCO)c21
true (1)

Next up: O=C(Nc1nnc(C(F)(F)F)s1)c1ccc(Br)s1
true (1)

Try Cc1[nH]c(=O)c(C#N)c2c1CCCC2 next.
false (0)

Then what about the compound COC(=O)C1=C(c2ccc(F)cc2OCc2ccccc2)C[C@@H]2CC[C@H]1N2C(=O)NCCOc1ccccc1 ?
false (0)

Now try Cc1ccc2c(c1)-c1c(cnn1CC(=O)NC(C)CCc1ccco1)CO2 (centres undefined) .
false (0)

Likewise for O=C(CC(=O)N/N=C/c1ccc(O)cc1)N/N=C/c1ccc(O)cc1 ?
true (1)

Do the same for O=c1[nH]c(/C=C\c2ccc(O)c(Cl)c2)nc(O)c1[N+](=O)[O-] please
true (1)

----------
# test-name: Biochemical counterscreen for C difficile toxins, absence of UDPG, inhibitor dose response (AID 720650)
# condition-details: series mostly up to 19.5 µM
Calls of active or inactive are those of the source. The rule behind the calls is not given here.
Can you answer with just one of these options? True for active, False for inactive

Look over these answered cases.
Which outcome was assigned to CNC(=O)N(O)C1N(/N=C/c2cccs2)C(=S)SC1(C)C (centres undefined) in this test?
False

Also, CC1(C)CC(=O)C(C=Nc2ccc(O)cc2)=C(O)C1 please.
True

Please give the result for Cn1c(=O)c2c([nH]c(=S)n2Cc2ccc(Cl)cc2)n(C)c1=O too.
False

Continue with the next compound.
Field: outcome | Entry: COc1ccc(C(=O)Nc2ccc3c(c2)C(=O)N(C)[C@@H]2CC[C@H](CC(=O)NCC4CC4)O[C@H]2CO3)cc1
False

----------
# test-name: Biochemical counterscreen for C difficile toxins, absence of UDPG, inhibitor dose response (AID 720650)
# condition-details: series mostly up to 19.5 µM
Calls of active or inactive are those of the source. How the calls were made is not given here.
Respond using exactly one of the listed classes: Y = active, N = inactive

Identify the outcome logged in this assay for the compound shown: Nc1ccc(OCCCc2c(N)nc(N)nc2N)cc1
Y

Entry CCn1c(SCC(=O)OC)nnc1-c1ccccc1 please
N

Queued: CC(=O)c1ccc(NC(=O)CNCC(c2ccccc2)N(C)C)cc1 (stereo unspecified)
N

Here is the next compound: O=C(N/C(=C\c1ccc(O)cc1)C(=O)N1CCCCC1)c1ccccc1
N

Now try COc1ccc(C(=O)Nc2c(-c3cccs3)c(=O)c3ccccc3n2C)cc1 .
N

What do you have for COc1ccc(C2=NS(=O)(=O)N(C)C(C(=O)NCc3ccccc3)=C2)cc1OC ?
N

Do the same for O=C1Cc2cc(S(=O)(=O)NCc3ccccc3Cl)cc3c2N1CCC3 please
N

What would you report for C/C(=N\Nc1ccc([N+](=O)[O-])cc1)c1cccc(N)c1 ?
Y

Then this compound: Clc1ccc(-c2nc3ccc(Cl)cn3c2Cc2ccccc2)cc1
N

Also CCCNC(=O)C1CC(=O)N(c2ccc(OCC)cc2)C1 (stereo unspecified) ?
N

Also check CC(Sc1nccn1C)C(=O)c1c(N)n(C)c(=O)n(C)c1=O (stereo unspecified)
N

Okay, and c1ccc(-c2nnc(OCC3CCCO3)c3ccccc23)cc1 (stereo unspecified) ?
N

Subsequent entry: Cc1ccc(-c2cc(C(=O)NNC(=O)c3csc(N4CCOCC4)n3)c3ccccc3n2)cc1
N

Repeat with O=c1ccc2cc(O)c(O)cc2o1
N

// query: C=CCc1ccc(O)c(-c2ccc(O)c(CC=C)c2)c1
N

Next compound: Cc1nn2cc(-c3cccc(Cl)c3)cnc2c1Br
N
